test system: Fibroblast; assay: Multiplex assay against human fibroblast; assay type: toxicity, cell-based; conditions: 48 h, 1 µM, compound concentration 1 uM, replicate 1
READOUT_LABEL: Population Pyknosed Nuclei (%)

* COCCn1c(C)c(C)s/c1=N\C(=O)C1C(C)(C)C1(C)C | 12
* COc1cc(C(=O)N2CC[C@@H](O)[C@@H](N)C2)cc2nc(-c3cc4ccccc4n3CC3CC3)n(C)c12.Cl | 10
* CCC(=O)OCC(=O)[C@@]1(OC(=O)CC)[C@@H](C)C[C@H]2[C@@H]3CCC4=CC(=O)C=C[C@]4(C)[C@@]3(Cl)[C@@H](O)C[C@@]21C [BECLOMETHASONE DIPROPIONATE] | 30
* O=C(O)CCC/C=C\CC1C(O)CC(O)C1/C=C/C(O)COc1cccc(Cl)c1 (configuration not stated) [CLOPROSTENOL] | 19
* O=c1ccc2ccc(OCCCCN3CCN(c4cccc5sccc45)CC3)cc2[nH]1 [BREXPIPRAZOLE] | 12
* Cc1nn(C)c2nc(NNC(=O)Nc3cc(Cl)nc(Cl)c3)cc(C(C)C)c12 | 7
* CN1CCN2c3ccccc3Cc3ccccc3C2C1.Cl (configuration not stated) [MIANSERIN HYDROCHLORIDE] | 9
* S=C(NCCCc1c[nH]cn1)NCCCN(Cc1ccc(Cl)c(Cl)c1)c1ccc(Br)cn1 | 5
* CCCCC[C@H](O)/C=C/[C@H]1[C@H](O)CC(=O)[C@@H]1CCCCCCC(=O)O [ALPROSTADIL] | 18
* Nc1nc(-c2ccco2)c2cnn(Cc3ccccc3F)c2n1 | 6
* Cl.Cl.OCCOCCN1CCN(C(c2ccccc2)c2ccc(Cl)cc2)CC1 (configuration not stated) [HYDROXYZINE HYDROCHLORIDE] | 13
* Cc1cc(=O)n(C)c2cc(N3C(=O)CC[C@H](NS(=O)(=O)CC(C)C)[C@H]3c3ccc(Cl)cc3)ccc12 | 18

---

tested on: Fibroblast; assay: Multiplex assay against human fibroblast; assay type: toxicity, cell-based; conditions: 12 h, 1 µM, compound concentration 1 uM, replicate 1
Non-standard residues stand in square brackets, D forms with d. Residues, ends and D or L forms follow the SMILES beside them.
READOUT_LABEL: Population Apoptotic (%)

- COc1cc(C(=O)N2CC[C@@H](O)[C@@H](N)C2)cc2nc(-c3cc4ccccc4n3CC3CC3)n(C)c12.Cl: 21
- O=c1ccc2ccc(OCCCCN3CCN(c4cccc5sccc45)CC3)cc2[nH]1: 56
- Nc1nc(-c2ccco2)c2cnn(Cc3ccccc3F)c2n1: 50
- C=CCN1C[C@H](C(=O)N(CCCN(C)C)C(=O)NCC)C[C@@H]2c3cccc4[nH]cc(c34)C[C@H]21: 69
- C[C@@H]1CC(=O)Nc2cccc(-c3ccc4c(c3)c(-c3cnn(C)c3)nn4C)c2N1: 38
- COc1ccc2c(c1OCc1ccccc1)C[C@@H](C(=O)O)N(C(=O)C(c1ccccc1)c1ccccc1)C2: 46
- Cc1sc2c(c1C)C(c1ccc(Cl)cc1)=N[C@H](CC(=O)OC(C)(C)C)c1nnc(C)n1-2: 43
- CN(C)C(=O)Cn1cc(-c2ccc(-c3nnc4ccccn34)cc2)cn1: 57
- CCCCCCNC(=O)Nc1ccc(S(=O)(=O)Nc2ccc(CCNC[C@H](O)COc3ccc(O)cc3)cc2)cc1: 40
- OCCCNc1cc(-c2ccnc(Nc3cccc(Cl)c3)n2)ccn1: 58
- N[C@](CC1c2ccccc2Oc2ccccc21)(C(=O)O)[C@H]1C[C@@H]1C(=O)O: 44
- S=C(NCCCc1c[nH]cn1)NCCCN(Cc1ccc(Cl)c(Cl)c1)c1ccc(Br)cn1: 40
- COc1cc(Nc2ncc3c(n2)-c2ccc(Cl)cc2C(c2c(F)cccc2OC)=NC3)ccc1C(=O)O: 39
- Cc1cc(=O)n(C)c2cc(N3C(=O)CC[C@H](NS(=O)(=O)CC(C)C)[C@H]3c3ccc(Cl)cc3)ccc12: 31
- CC(C)C[C@H](CO)Nc1nc(S[C@@H](C)c2ccccc2)nc2nc(N)sc12: 25
- COC(c1ccccc1)(c1ccccc1)[C@H](Oc1nc(C)cc(C)n1)C(=O)O: 68
- O=C(O)CCC/C=C\CC1C(O)CC(O)C1/C=C/C(O)COc1cccc(Cl)c1 (stereo not given): 41
- CN1CCN2c3ccccc3Cc3ccccc3C2C1.Cl (stereo not given) [MIANSERIN HYDROCHLORIDE]: 55
- CC(F)(F)CN1CCOc2c(nn(-c3ccccc3Cl)c2-c2ccc(Cl)cc2)C1=O: 42
- CC(C)C[C@@H]1NC(=O)[C@@H](C(C)C)NC(=O)[C@@H]2CCCN2C(=O)[C@@H](CC(=O)O)NC(=O)[C@@H](Cc2c[nH]c3ccccc23)NC1=O [BQ-123] (cyclo(L[dW][dD]P[dV])): 57
